# Tested on: luciferase (Luc) mRNA
# Method Summary: Luc expression (total flux) after intramuscular administration
# Assay type: in vivo, mice
# Applied Conditions: Table 5B; 6 hours after intramuscular administration, 0.01 mpk
Each entry below carries its reported Total flux (p/s) 0.01 mpk Dose.

Some entries whose results are on file:
# Compound, Measured Target, Total flux (p/s) 0.01 mpk Dose
records = [
    ("CCCCCCCCCOC(=O)CCCCCCCN(C)CCCCCCCC(=O)OC(CCCCCCCC)CCCCCCCC", "luciferase (Luc) mRNA", "1.08E+07 p/s"),
    ("CCCCC/C=C\\C/C=C\\CCCCCCCCC(CCCCCCCC/C=C\\C/C=C\\CCCCC)OC(=O)CCCN(C)C [MC3, DLin-MC3-DMA, reference compound]", "luciferase (Luc) mRNA", "3.23E+07 p/s"),
    ("CCCCCCCCC(C)OC(=O)CCCCCN(CCO)CCCCCCCC(=O)OC(CCCCCCCC)CCCCCCCC (stereo not drawn)", "luciferase (Luc) mRNA", "9.19E+07 p/s"),
    ("CCCC/C=C\\CCC(CC/C=C\\CCCC)OC(=O)CCCCCCCN(CCO)CCCCCCCC(=O)OCCCCCCCCC", "luciferase (Luc) mRNA", "9.48E+07 p/s"),
    ("CCCCCCCCCOC(=O)CCCCCCCN(CCCCCCCC(=O)OC(CCCCCCCC)CCCCCCCC)CCCn1ccc(=O)[nH]c1=O", "luciferase (Luc) mRNA", "3.31E+06 p/s"),
]

// Total flux (p/s) 0.01 mpk Dose lookup, compound = CCCCCCCCCOC(=O)CCCCCCCN(CCCN)CCCCCCCC(=O)OC(CCCCCCCC)CCCCCCCC , result: 1.06E+06 p/s

// Total flux (p/s) 0.01 mpk Dose lookup, compound = CCCCCCCCCOC(=O)CCCCCCCN(CCCCCCCC(=O)OC(CCCCCCCC)CCCCCCCC)CCCNS(C)(=O)=O , result: 1.18E+08 p/s

// Total flux (p/s) 0.01 mpk Dose lookup, compound = CCCCCCCCCOC(=O)CCCCCCCN(CCCCCCCC(=O)OC(CCCCCCCC)CCCCCCCC)CCCNC(=S)N(C)C , result: 1.58E+08 p/s

// Total flux (p/s) 0.01 mpk Dose lookup, compound = CCCCCCCCCOC(=O)CCCCCCCN(CCCCCCCC(=O)OC(CCCCCCCC)CCCCCCCC)CCCNC(=O)NC , result: 9.47E+07 p/s
